Cited source: PubChem BioAssay (NCATS)

tested on: CP215; assay: qHTS profiling for inhibitors of Plasmodium falciparum proliferation (AID 504749); further: nearly all actives have a fitted effect of over 60% in size; settings: P. falciparum in erythrocytes, SYBR Green DNA, 72 h; series mostly up to 28.7 µM
Results filed as inconclusive are left out. The source made the active and inactive calls. The call rests on the fitted dose curve; in most records, active means well fitted inhibition curve with a large enough effect; inconclusive means small, poorly fitted or top-dose-only effect; inactive means flat fitted curve, though single readings scatter. Numbered stars: 1 amine (or outer) side, 2 acyl side, 3 side chain; on linkers, the order of the positions; unused ones are H or OH. Bridge positions count the residues as written; N and C are the ends. Square brackets hold non-standard residues; d marks the D form. Peptide text beside a SMILES is read from it. I, II: the chains in the order shown. Actinocin(9to1) = Cc1c2oc3c(C)ccc(C(=O)[*:1])c3nc-2c(C(=O)[*:2])c(N)c1=O; NMeV = CN[C@H](C(=O)O)C(C)C; Sar = CNCC(=O)O
Returns: one label drawn from Y (active), N (inactive)

// query // return assay outcome for `NCCCC[C@H](N[C@@H](CCc1ccccc1)C(=O)O)C(=O)N1CCC[C@H]1C(=O)O`
// result N

// query Try the compound `O=c1ccc2ccccc2o1`
// result N

// query Try the compound `O=C1c2ccccc2C(=O)C1c1ccccc1`
// result N

// query Try the compound `N[C@@H](Cc1cnc[nH]1)C(=O)O`
// result N

// query Try the compound `Cc1cc(O)c(C(C)C)cc1Cl`
// result N

// query Try the compound `O=S1(=O)c2cccc3cccc(c23)N1CCCN1CCN(c2ccc(F)cc2)CC1`
// result N

// query Try the compound `CCCCOc1cc(C(=O)NCCN(CC)CC)c2ccccc2n1`
// result N

// query Try the compound `COc1c2occc2c(OC)c2c(=O)cc(C)oc12`
// result N

// query Try the compound `CN1CCC(=C2c3ccccc3Sc3ccccc32)CC1`
// result Y

// query Try the compound `Cc1cccn2c(=O)c(-c3nnn[nH]3)cnc12`
// result N

// query Try the compound COc1cccc(CCc2ccccc2OCC(CN(C)C)OC(=O)CCC(=O)O)c1 (stereo unspecified)
// result Y

// query Try the compound CCCCN1CCCC1C(=O)Nc1c(C)cc(C)cc1C (stereo unspecified)
// result N

// query Try the compound CCC(C(=O)OCCN(CC)CC)c1ccccc1 (stereo unspecified)
// result N

// query Try the compound `CC(C)(C(=O)c1cccnc1)c1cccnc1`
// result N

// query Try the compound `C[C@@H](CN(C)C)CN1c2ccccc2Sc2ccccc21`
// result N

// query Try the compound Cc1c2oc3c(C)ccc(C(=O)N[C@@H]4C(=O)N[C@H](C(C)C)C(=O)N5CCC[C@H]5C(=O)N(C)CC(=O)N(C)[C@@H](C(C)C)C(=O)O[C@@H]4C)c3nc-2c(C(=O)N[C@@H]2C(=O)N[C@H](C(C)C)C(=O)N3CCC[C@H]3C(=O)N(C)CC(=O)N(C)[C@@H](C(C)C)C(=O)O[C@@H]2C)c(N)c1=O (I: T[dV]P[Sar][NMeV] / II: T[dV]P[Sar][NMeV]; ester I:1-I:C, II:1-II:C; linker I:N-II:N via Actinocin(9to1))
// result Y

// query Try the compound `O=C(Nc1ccc(Cl)c(Cl)c1)C1CC1`
// result N

// query Try the compound `C[C@]12CC[C@@H]3c4ccc(O)cc4CC[C@H]3[C@@H]1CC[C@@H]2O`
// result N

// query Try the compound `Nc1ccc(C(=O)O)cc1`
// result N

// query Try the compound `c1ccc(OCc2ccc(CCCN3CCOCC3)cc2)cc1`
// result N

// query Try the compound `CC(C)(Oc1ccc(Cl)cc1)C(=O)O`
// result N

* * *

tested on: ATS95; experiment: qHTS profiling for inhibitors of Plasmodium falciparum proliferation (AID 504749); further: nearly all actives have a fitted effect of over 60% in size; details: P. falciparum in erythrocytes, SYBR Green DNA, 72 h; series mostly up to 28.7 µM
Inconclusive results are not listed. Active and inactive are the calls of the source. The call rests on the fitted dose curve; in most records, active means well fitted inhibition curve with a large enough effect; inconclusive means small, poorly fitted or top-dose-only effect; inactive means flat fitted curve, though single readings scatter.
Returns: one label drawn from active, inactive

// query // return assay outcome for `Cc1ccc(O)c2ncccc12`
// result inactive

// query Try the molecule `O=C1[C@H]2CCCC[C@H]2C(=O)N1CCCCN1CCN(c2nsc3ccccc23)CC1`
// result inactive

// query Try the molecule CCOc1ccc(NC(=O)CC(C)O)cc1 (centres undefined)
// result inactive

// query Try the molecule `O=C(Nc1ccc(Cl)c(Cl)c1)C1CC1`
// result inactive

// query Try the molecule `CCCn1c(=O)[nH]c(=O)c2[nH]cnc21`
// result inactive

// query Try the molecule `CCCCCCC[N+](CC)(CC)CCCCc1ccc(Cl)cc1`
// result active

// query Try the molecule `O=C1c2ccccc2C(=O)C1c1ccccc1`
// result inactive

// query Try the molecule `Cc1c(C(C)C)c(=O)n(-c2ccccc2)n1C`
// result inactive

// query Try the molecule `NCCC(O)(P(=O)(O)O)P(=O)(O)O`
// result inactive

// query Try the molecule `CCCCOc1cc(C(=O)NCCN(CC)CC)c2ccccc2n1`
// result inactive

// query Try the molecule `O=S1(=O)c2cccc3cccc(c23)N1CCCN1CCN(c2ccc(F)cc2)CC1`
// result inactive

// query Try the molecule `CN1CCC[C@@H]1c1cccnc1`
// result inactive

// query Try the molecule `COc1ccc(/C=C/C(=O)c2ccc(OC)cc2OC)cc1`
// result active

// query Try the molecule `COc1c2occc2c(OC)c2c(=O)cc(C)oc12`
// result inactive

// query Try the molecule `COc1cc(-c2ccc(=O)[nH]n2)ccc1OC(F)F`
// result active

// query Try the molecule `CCCCc1nc(Cl)c(CO)n1Cc1ccc(-c2ccccc2-c2nn[nH]n2)cc1`
// result active

// query Try the molecule `CCN1CCN(c2cc3c(cc2F)c(=O)c(C(=O)O)cn3C2CC2)CC1`
// result inactive

// query Try the molecule C[C@H]1[C@H](NC(=O)/C(=N/OC(C)(C)C(=O)O)c2csc(N)n2)C(=O)N1S(=O)(=O)O (stereo in doubt)
// result inactive

// query Try the molecule `Oc1ccc(O)cc1`
// result inactive

// query Try the molecule CCCCCCCCCCCCCCCCCC(=O)OCC(O)CO (centres undefined)
// result inactive

// query Try the molecule `Nc1ccc(C(=O)O)cc1`
// result inactive

// query Try the molecule `CCOC(=O)c1cccc(N)c1`
// result inactive

// query Try the molecule `N[C@H](Cc1c[nH]c2ccccc12)C(=O)O`
// result inactive

// query Try the molecule CNCCC(Oc1ccccc1C)c1ccccc1 (centres undefined)
// result inactive

* * *

tested on: CP256; assay: qHTS profiling for inhibitors of Plasmodium falciparum proliferation (AID 504749); further: nearly all actives have a fitted effect of over 60% in size; conditions: P. falciparum in erythrocytes, SYBR Green DNA, 72 h; series mostly up to 28.7 µM
Records with an inconclusive call do not appear. The source made the active and inactive calls. The call rests on the fitted dose curve; in most records, active means well fitted inhibition curve with a large enough effect; inconclusive means small, poorly fitted or top-dose-only effect; inactive means flat fitted curve, though single readings scatter.
Returns: one label drawn from active, inactive

// query // return assay outcome for `N[C@H](Cc1c[nH]c2ccccc12)C(=O)O`
// result inactive

// query Try the compound `COc1cccc2c1C(=O)c1c(O)c3c(c(O)c1C2=O)C[C@@](O)(C(C)=O)C[C@@H]3O[C@H]1C[C@H](N)[C@H](O)[C@H](C)O1`
// result active

// query Try the compound `CC(=O)Oc1ccc(C(c2ccc(OC(C)=O)cc2)c2ccccn2)cc1`
// result inactive

// query Try the compound Cc1c(F)c(N2CCNC(C)C2)cc2c1c(=O)c(C(=O)O)cn2C1CC1 (configuration not stated)
// result inactive

// query Try the compound `Nc1ccc(/C=C/c2ccc(N)cc2S(=O)(=O)O)c(S(=O)(=O)O)c1`
// result inactive

// query Try the compound `Cc1c(C(N)=O)cc([N+](=O)[O-])cc1[N+](=O)[O-]`
// result inactive

// query Try the compound `CCCCCCCCCCCCCCCC[N+](C)(C)CCN(Cc1ccc(OC)cc1)c1ncccn1`
// result inactive

* * *

Assay: qHTS to identify inhibitors of the type 1 interferon - major histocompatibility complex class I in skeletal muscle: primary screen against the NCATS Pharmaceutical Collection (AID 1347407);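 further: luminescence of HiBiT knocked into endogenous HLA-B as interferon-induced MHC class I level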
Details: human skeletal muscle cells, IFN-b-induced MHC-I HiBiT luminescence, 24 h; series mostly up to 45.9 µM
Source text: Assay Submitter (PI): Travis B. Kinder Ph.D. & James Inglese Ph.D. Assay Development and Screening Technology Laboratory (ADST) National Center for Advancing Translational Sciences (NCATS), Rockville, MD National Institute of Health (NIH), Bethesda, Maryland […]
Records with an inconclusive call do not appear. Active and inactive are the calls of the source. Calls follow the shape of the dose curve; as a rule, active = well fitted inhibition curve with a large enough effect; inconclusive = small, poorly fitted or top-dose-only effect; inactive = flat fitted curve, though single readings scatter. Numbered stars: 1 amine (or outer) side, 2 acyl side, 3 side chain; on linkers, the order of the positions; unused ones are H or OH. Bridge positions count the residues as written; N and C are the ends. Square brackets hold non-standard residues; d marks the D form. Peptide text beside a SMILES is read from it. I, II: the chains in the order shown. Actinocin(9to1) = Cc1c2oc3c(C)ccc(C(=O)[*:1])c3nc-2c(C(=O)[*:2])c(N)c1=O; NMeV = CN[C@H](C(=O)O)C(C)C; Sar = CNCC(=O)O
Returns: one label drawn from active, inactive

// query // return assay outcome for `CC(=O)N/N=C/c1ccc([N+](=O)[O-])o1`
// result inactive

// query Try the molecule `O=C1OC2(c3ccc(O)cc3Oc3cc(O)ccc32)c2ccccc21`
// result inactive

// query Try the molecule `OC[C@H]1O[C@@H](n2cnc3c(=S)nc[nH]c32)[C@H](O)[C@@H]1O`
// result inactive

// query Try the molecule `OC[C@@H](O)[C@@H](O[C@@H]1O[C@H](CO)[C@H](O)[C@H](O)[C@H]1O)[C@H](O)[C@@H](O)CO`
// result inactive

// query Try the molecule Cc1c2oc3c(C)ccc(C(=O)N[C@@H]4C(=O)N[C@H](C(C)C)C(=O)N5CCC[C@H]5C(=O)N(C)CC(=O)N(C)[C@@H](C(C)C)C(=O)O[C@@H]4C)c3nc-2c(C(=O)N[C@@H]2C(=O)N[C@H](C(C)C)C(=O)N3CCC[C@H]3C(=O)N(C)CC(=O)N(C)[C@@H](C(C)C)C(=O)O[C@@H]2C)c(N)c1=O (I: T[dV]P[Sar][NMeV] / II: T[dV]P[Sar][NMeV]; ester I:1-I:C, II:1-II:C; linker I:N-II:N via Actinocin(9to1))
// result active

// query Try the molecule `Cc1c(C(N)=O)cc([N+](=O)[O-])cc1[N+](=O)[O-]`
// result inactive

// query Try the molecule `CC(=O)OCC(=O)[C@@]1(O)[C@H](C)C[C@H]2[C@@H]3CCC4=CC(=O)C=C[C@]4(C)[C@@]3(F)[C@@H](O)C[C@@]21C`
// result inactive

// query Try the molecule `N[C@H](Cc1c[nH]c2ccccc12)C(=O)O`
// result inactive
